# measurementProtocol: Plasma exposure after oral gavage in mice, LC-MS/MS
# Format: in vivo
# conditionSet: mouse, plasma; mice, oral gavage 25 mg/kg, 6 h; read-out: Plasma concentration (ng/mL) 6 h
endpoint: log10 of concentration at 6 h (log10 of the value in ng/mL)
Values reflect log10 of reported concentration at 6 h (ng/mL).

Illustrative cases are given below, each with its answer.
| smilesRecord | endpoint | reportedMeasurement |
| --- | --- | --- |
| Cc1nnc(C[C@@H]2N=C(c3ccc(Cl)cc3)c3c(sc(C#CC4CC4)c3C)-n3c(C)nnc32)o1 | log10 of concentration at 6 h | 3.56 |
| Cc1c(C#Cc2ccccn2)sc2c1C(c1ccc(Cl)cc1)=N[C@@H](CC(=O)N1CCOCC1)c1nnc(C)n1-2 | log10 of concentration at 6 h | 2.67 |
| Cc1c(C#Cc2ccccn2)sc2c1C(c1ccc(Cl)cc1)=N[C@@H](CC(N)=O)c1nnc(C)n1-2 | log10 of concentration at 6 h | 2.26 |
| Cc1c(C#Cc2ccccn2)sc2c1C(c1ccc(Cl)cc1)=N[C@@H](CC(=O)N1CCN(C)CC1)c1nnc(C)n1-2 | log10 of concentration at 6 h | 1.72 |
| Cc1c(C#CC2CCOCC2)sc2c1C(c1ccc(Cl)cc1)=N[C@@H](CC(=O)N1CCC(O)CC1)c1nnc(C)n1-2 | log10 of concentration at 6 h | 3.23 |
| CCNC(=O)C[C@@H]1N=C(c2ccc(Cl)cc2)c2c(sc(C#Cc3ccccn3)c2C)-n2c(C)nnc21 | log10 of concentration at 6 h | 2.09 |

Would you mind giving log10 of concentration at 6 h for every compound in the list below?
1. Cc1c(C#CC2CCOCC2)sc2c1C(c1ccc(Cl)cc1)=N[C@@H](CC(=O)N1CCC(C)(O)CC1)c1nnc(C)n1-2
2. Cc1nnc(C[C@@H]2N=C(c3ccc(Cl)cc3)c3c(sc(C#CC4CCNCC4)c3C)-n3c(C)nnc32)o1
3. Cc1c(C#Cc2ccccn2)sc2c1C(c1ccc(Cl)cc1)=N[C@@H](CC(=O)Nc1ccc(O)cc1)c1nnc(C)n1-2
4. Cc1nnc(C[C@@H]2N=C(c3ccc(Cl)cc3)c3c(sc(C#CC4CCN(C)CC4)c3C)-n3c(C)nnc32)o1

3.08
0.48
1.92
1.83

Would you mind giving log10 of concentration at 6 h for every compound in the list below?
1. Cc1nnc(C[C@@H]2N=C(c3ccc(Cl)cc3)c3c(sc(C#CC(C)(C)O)c3C)-n3c(C)nnc32)o1
2. Cc1nnc(C[C@@H]2N=C(c3ccc(Cl)cc3)c3c(sc(C#CC4CCOCC4)c3C)-n3c(C)nnc32)o1
3. Cc1c(C#CC2CCOCC2)sc2c1C(c1ccc(Cl)cc1)=N[C@@H](CC(=O)N1CC(C)(O)C1)c1nnc(C)n1-2

3.05
2.80
2.98

###

Could you please report measured IC50 for the items listed next?
# testedTarget: recombinant BRD4 BD2 (Homo sapiens)
# Construct: for recombinant BRD4 BD1 and BRD4 BD2 proteins
# measurementProtocol: Competitive fluorescence-polarization (FP) binding assay, BRD4 BD2
Give bare numbers, in nM.

| compound | IC50 / nM |
| --- | --- |
| Cc1c(C#Cc2cncs2)sc2c1C(c1ccc(Cl)cc1)=N[C@@H](C)c1nnc(C)n1-2 [Cpd. No. 34] | 21.8 |
| COCC#Cc1sc2c(c1C)C(c1ccc(Cl)cc1)=N[C@@H](C)c1nnc(C)n1-2 [Cpd. No. 15] | 11.3 |

Would you mind giving IC50 for every compound in the list below?
1. Cc1c(C#Cc2ccc(N)cn2)sc2c1C(c1ccc(Cl)cc1)=N[C@@H](C)c1nnc(C)n1-2 [Cpd. No. 32]
2. C#Cc1sc2c(c1C)C(c1ccc(Cl)cc1)=N[C@@H](C)c1nnc(C)n1-2 [compound 20]
3. Cc1c(C#Cc2cccnc2)sc2c1C(c1ccc(Cl)cc1)=NCc1nnc(C)n1-2 [Cpd. No. 3]
4. Cc1c(C#Cc2cncnc2)sc2c1C(c1ccc(Cl)cc1)=NCc1nnc(C)n1-2 [Cpd. No. 5]
5. Cc1c(C#Cc2cn[nH]c2)sc2c1C(c1ccc(Cl)cc1)=NCc1nnc(C)n1-2 [Cpd. No. 21]
6. COc1ccc(C#Cc2sc3c(c2C)C(c2ccc(Cl)cc2)=N[C@@H](C)c2nnc(C)n2-3)nc1 [Cpd. No. 36]
7. C#Cc1sc2c(c1C)C(c1ccc(Cl)cc1)=NCc1nnc(C)n1-2 [compound 19]
8. Cc1c(C#Cc2cn[nH]c2)sc2c1C(c1ccc(Cl)cc1)=N[C@@H](C)c1nnc(C)n1-2 [Cpd. No. 22]

1: 9.87; 2: 41.1; 3: 124; 4: 305; 5: 37.4; 6: 11.7; 7: 227; 8: 7.68

Entry under review: Cc1c(C#Cc2ccnn2C)sc2c1C(c1ccc(Cl)cc1)=N[C@@H](C)c1nnc(C)n1-2 [Cpd. No. 17] . Reported IC50?
14.4

###

# testedTarget: recombinant BRD4 BD2 (Homo sapiens)
# Construct: for recombinant BRD4 BD1 and BRD4 BD2 proteins
# measurementProtocol: Competitive fluorescence-polarization (FP) binding assay, BRD4 BD2
endpoint: IC50 (nM)
Answers are plain numbers, in nM.

| smilesRecord | reportedMeasurement |
| --- | --- |
| Cc1c(C#Cc2cncn2C)sc2c1C(c1ccc(Cl)cc1)=N[C@@H](C)c1nnc(C)n1-2 | 13.5 |
| Cc1c(C#Cc2ccccn2)sc2c1C(c1ccc(Cl)cc1)=NCc1nnc(C)n1-2 | 178 |
| Cc1c(C#Cc2cnn(CC(=O)O)c2)sc2c1C(c1ccc(Cl)cc1)=N[C@@H](C)c1nnc(C)n1-2 | 12.3 |
| Cc1c(C#CCN2CCN(C)CC2)sc2c1C(c1ccc(Cl)cc1)=N[C@@H](C)c1nnc(C)n1-2 | 42.2 |
| Cc1c(C#Cc2cnn(C)c2)sc2c1C(c1ccc(Cl)cc1)=NCc1nnc(C)n1-2 | 63.1 |
| Cc1c(C#Cc2ccccn2)sc2c1C(c1ccc(Cl)cc1)=N[C@@H](C)c1nnc(C)n1-2 | 14.5 |

Would you mind giving IC50 for every compound in the list below?
1. Cc1c(C#CCO)sc2c1C(c1ccc(Cl)cc1)=N[C@@H](C)c1nnc(C)n1-2
2. Cc1c(C#CCCCO)sc2c1C(c1ccc(Cl)cc1)=N[C@@H](C)c1nnc(C)n1-2
3. Cc1c(C#Cc2ccc(F)cn2)sc2c1C(c1ccc(Cl)cc1)=N[C@@H](C)c1nnc(C)n1-2
4. Cc1c(C#Cc2cccnc2)sc2c1C(c1ccc(Cl)cc1)=N[C@@H](C)c1nnc(C)n1-2
5. Cc1c(C#Cc2cncnc2)sc2c1C(c1ccc(Cl)cc1)=N[C@@H](C)c1nnc(C)n1-2
6. Cc1c(C#CCO)sc2c1C(c1ccc(Cl)cc1)=NCc1nnc(C)n1-2
7. Cc1c(C#CCN(C)C)sc2c1C(c1ccc(Cl)cc1)=N[C@@H](C)c1nnc(C)n1-2

[11.8, 7.22, 19.5, 12.5, 16, 126, 58.9]

###

# Test system: RS4;11
# measurementProtocol: Cell growth inhibition, 4-day proliferation assay, RS4;11
# Format: cell-based
# conditionSet: Homo sapiens, RS4-11; WST-8 assay, Table 7; read-out: Cell growth inhibition (IC50 (nM)) RS4;11
endpoint: IC50
Dear colleague, please send the value followed by its unit.

Illustrative cases are given below, each with its answer.
| compound | testedTarget | IC50 |
| --- | --- | --- |
| Cc1c(C#CC2CCOCC2)sc2c1C(c1ccc(Cl)cc1)=N[C@@H](CC(=O)N1CCC(C)(O)CC1)c1nnc(C)n1-2 [Compound 157] | RS4;11 | 37 nM |
| Cc1c(C#CC2CCOCC2)sc2c1C(c1ccc(Cl)cc1)=N[C@@H](CC(=O)N1CCC(O)CC1)c1nnc(C)n1-2 [Compound 159] | RS4;11 | 39.5 nM |
| Cc1nnc(C[C@@H]2N=C(c3ccc(Cl)cc3)c3c(sc(C#CC4CCOCC4)c3C)-n3c(C)nnc32)o1 [Compound 145] | RS4;11 | 13.3 nM |

Please examine the following record next.
Entry under review: Cc1c(C#CC2CCOCC2)sc2c1C(c1ccc(Cl)cc1)=N[C@@H](CC(=O)N1CC(C)(O)C1)c1nnc(C)n1-2 [Compound 158] . Reported IC50?
43 nM

###

# measurementProtocol: Plasma exposure after oral gavage in mice, LC-MS/MS
# Type: in vivo
# conditionSet: mouse, plasma; mice, oral gavage 25 mg/kg, 3 h; read-out: Plasma concentration (ng/mL) 3 h
Assign Met to entries whose concentration at 3 h meets or exceeds 400 ng/mL; assign Not met to the rest.

Below are worked cases with known answers.
| compound | qualitativeLabel |
| --- | --- |
| Cc1c(C#CC2CCOCC2)sc2c1C(c1ccc(Cl)cc1)=N[C@@H](CC(=O)N1CC(C)(O)C1)c1nnc(C)n1-2 [Compound 158] | Met |
| Cc1nnc(C[C@@H]2N=C(c3ccc(Cl)cc3)c3c(sc(C#CC4CCNCC4)c3C)-n3c(C)nnc32)o1 [Compound 174] | Not met |

concentration at 3 h >= 400 ng/mL for Cc1nnc(C[C@@H]2N=C(c3ccc(Cl)cc3)c3c(sc(C#CC(C)(C)O)c3C)-n3c(C)nnc32)o1 [Compound 144] ?
Met
